ASSAYED_SYSTEM: human Gal-4 (Homo sapiens)
Sequence (P56470 1-323): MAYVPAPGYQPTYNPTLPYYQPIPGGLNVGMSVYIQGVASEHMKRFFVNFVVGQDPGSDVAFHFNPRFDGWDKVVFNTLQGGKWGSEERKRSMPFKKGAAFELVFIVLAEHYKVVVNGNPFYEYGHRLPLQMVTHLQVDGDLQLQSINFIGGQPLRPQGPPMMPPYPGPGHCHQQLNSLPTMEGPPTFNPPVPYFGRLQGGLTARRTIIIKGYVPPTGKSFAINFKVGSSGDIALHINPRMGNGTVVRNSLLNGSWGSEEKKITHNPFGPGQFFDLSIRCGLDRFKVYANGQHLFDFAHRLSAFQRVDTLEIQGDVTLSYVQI
pIC50: −log10 of the molar value.
Use Yes when the recorded pIC50 is no lower than 2; use No when it is lower.

Q. Does the reported pIC50 for CC(=O)NC1C(OC2C(O)C(CO)OC(OC3C(CO)OC(O)C(O)C3O)C2O)OC(CO)C(OC2OC(CO)C(O)C(O)C2O)C1O (stereo not drawn) [LNnT, lacto-N-neotetraose] fall at or above the 2 mark?
A. No

Q. Does the reported pIC50 for OC[C@H]1O[C@@H](O[C@H]2[C@H](O)[C@@H](O)C(O)O[C@@H]2CO)[C@H](O)[C@@H](O)[C@H]1O (mixture of isomers) [Lac, lactose] fall at or above the 2 mark?
A. No

Q. Does the reported pIC50 for CC1OC(OC2C(OC3C(CO)OC(O)C(O)C3O)OC(CO)C(O)C2O)C(O)C(O)C1O (stereo not drawn) [2’-FL, 2′-fucosyllactose] fall at or above the 2 mark?
A. Yes

Q. Does the reported pIC50 for CC(=O)NC1C(O)OC(CO)C(OC2OC(CO)C(O)C(O)C2O)C1OC1OC(C)C(O)C(O)C1O (stereo not drawn) [Le^X, Lewis X trisaccharide] fall at or above the 2 mark?
A. No

Q. Does the reported pIC50 for CC(=O)NC1C(OC2C(O)C(CO)OC(OC3C(CO)OC(OC4C(O)C(CO)OC(OC5C(CO)OC(OC6C(O)C(CO)OC(OC7C(CO)OC(O)C(O)C7O)C6O)C(NC(C)=O)C5O)C4O)C(NC(C)=O)C3O)C2O)OC(CO)C(OC2OC(CO)C(O)C(O)C2O)C1O (stereo not drawn) [LNnO, lacto-N-neooctaose] fall at or above the 2 mark?
A. No

Q. Does the reported pIC50 for CC(=O)NC1C(OC2C(O)C(CO)OC(OC3C(CO)OC(O)C(O)C3OC3OC(C)C(O)C(O)C3O)C2O)OC(CO)C(OC2OC(C)C(O)C(O)C2O)C1OC1OC(CO)C(O)C(O)C1O (stereo not drawn) [LAH, Lewis A antigen hexaose] fall at or above the 2 mark?
A. No

Q. Does the reported pIC50 for CC(=O)NC1C(OC2C(O)C(CO)OC(OC3C(CO)OC(O)C(O)C3O)C2OC2OC(C)C(O)C(O)C2O)OC(CO)C(O)C1O (stereo not drawn) [BGA6, blood group A antigen tetraose 6] fall at or above the 2 mark?
A. Yes

Q. Does the reported pIC50 for CC(=O)NC1C(O)OC(CO)C(OC2OC(CO)C(O)C(O)C2O)C1O (stereo not drawn) [LacNAc, N-acetyllactosamine] fall at or above the 2 mark?
A. No

Q. Does the reported pIC50 for CC(=O)NC1C(OC2C(O)C(CO)OC(OC3C(O)C(CO)OC(O)C3NC(C)=O)C2OC2OC(C)C(O)C(O)C2O)OC(CO)C(O)C1O (stereo not drawn) [BGA1, blood group A antigen 1] fall at or above the 2 mark?
A. Yes
